Catalogue of mass density readings, one per entry.
conditions: 293.15 K; 101 kPa; Liquid; Vibrating tube method

smiles.string | mass density [kg/m3]
CNCCCN | 851.605
CCN(CC)CCO | 885.356
CN(CCO)CCO | 1040.06
CN(C)CCO | 886.56

---

We begin with a simple list: items and their reported mass density.
details: 283.15 K; 101 kPa; Liquid; Vibrating tube method

compound | mass density (kg/m3)
CNCCCN [N-methyl-1,3-diaminopropane] | 860.459
CN(C)CCO [2-(N,N-dimethylamino)ethanol] | 894.959
CCN(CC)CCO [(diethylamino)ethanol] | 894.423
O [water] | 999.701
